biological target: Wee1 kinase (Homo sapiens); test: Wee1 kinase inhibitory effect (Pharmacological Test 1); details: GST-tagged Wee1 kinase, Poly(Lys, Tyr) substrate, 10 μM ATP, 30° C. for 30 minutes
Sequence (P30291 whole entry): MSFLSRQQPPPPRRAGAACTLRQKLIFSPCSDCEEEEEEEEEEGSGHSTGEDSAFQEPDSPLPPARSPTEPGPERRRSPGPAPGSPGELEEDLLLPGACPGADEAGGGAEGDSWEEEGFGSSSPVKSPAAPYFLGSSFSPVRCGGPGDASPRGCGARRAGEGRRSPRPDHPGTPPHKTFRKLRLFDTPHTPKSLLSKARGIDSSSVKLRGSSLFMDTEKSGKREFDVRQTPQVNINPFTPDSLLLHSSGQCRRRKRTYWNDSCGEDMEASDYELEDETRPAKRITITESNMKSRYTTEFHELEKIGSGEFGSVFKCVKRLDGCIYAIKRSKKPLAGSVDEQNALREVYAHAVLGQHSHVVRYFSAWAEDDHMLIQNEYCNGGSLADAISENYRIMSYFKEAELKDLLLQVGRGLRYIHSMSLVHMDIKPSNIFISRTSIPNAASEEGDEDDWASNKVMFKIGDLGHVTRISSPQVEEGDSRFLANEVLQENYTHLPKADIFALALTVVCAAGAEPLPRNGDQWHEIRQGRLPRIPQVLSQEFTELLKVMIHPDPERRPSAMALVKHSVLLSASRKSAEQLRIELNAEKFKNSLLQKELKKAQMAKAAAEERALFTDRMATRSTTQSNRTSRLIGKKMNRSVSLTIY
pIC50: −log10 of the molar value.
readoutKind: pIC50

Cc1cc(Nc2ncc3c(=O)n(-c4c(Cl)cccc4Cl)c(=O)[nH]c3n2)ccc1N1CCN(C)CC1 8.15
COC(C)(C)C(=O)N1CCN(c2ccc(Nc3ncc4c(=O)n(-c5c(Cl)cccc5Cl)c(=O)[nH]c4n3)cc2)CC1 8.05
Cc1cc(Nc2ncc3c(=O)n(-c4c(C)cccc4Cl)c(=O)[nH]c3n2)ccc1N1CCN(C)CC1 8.05
CC(=O)N1CCN(c2ccc(Nc3ncc4c(=O)n(-c5c(Cl)cccc5Cl)c(=O)[nH]c4n3)cc2C)CC1 8.40
CN1CCCN(c2ccc(Nc3ncc4c(=O)n(-c5c(Cl)cccc5Cl)c(=O)[nH]c4n3)cc2)CC1 8.40
Cc1cc(Nc2ncc3c(=O)n(-c4c(Cl)cccc4Cl)c(=O)n(C)c3n2)ccc1N1CCN(C)CC1 8.10
O=C(CO)N1CCN(c2ccc(Nc3ncc4c(=O)n(-c5c(Cl)cccc5Cl)c(=O)[nH]c4n3)cc2)CC1 8.22
CN1CCN(c2ccc(Nc3ncc4c(=O)n(-c5c(Cl)cccc5Cl)c(=O)n(C)c4n3)cc2)CC1 7.48

Data credit: patent US8575179B2
